SYSTEM_UNDER_TEST: F508del (Homo sapiens, UniProt P13569, DEL508-508)
Sequence (P13569 with tags, fused parts or gaps DEL508-508): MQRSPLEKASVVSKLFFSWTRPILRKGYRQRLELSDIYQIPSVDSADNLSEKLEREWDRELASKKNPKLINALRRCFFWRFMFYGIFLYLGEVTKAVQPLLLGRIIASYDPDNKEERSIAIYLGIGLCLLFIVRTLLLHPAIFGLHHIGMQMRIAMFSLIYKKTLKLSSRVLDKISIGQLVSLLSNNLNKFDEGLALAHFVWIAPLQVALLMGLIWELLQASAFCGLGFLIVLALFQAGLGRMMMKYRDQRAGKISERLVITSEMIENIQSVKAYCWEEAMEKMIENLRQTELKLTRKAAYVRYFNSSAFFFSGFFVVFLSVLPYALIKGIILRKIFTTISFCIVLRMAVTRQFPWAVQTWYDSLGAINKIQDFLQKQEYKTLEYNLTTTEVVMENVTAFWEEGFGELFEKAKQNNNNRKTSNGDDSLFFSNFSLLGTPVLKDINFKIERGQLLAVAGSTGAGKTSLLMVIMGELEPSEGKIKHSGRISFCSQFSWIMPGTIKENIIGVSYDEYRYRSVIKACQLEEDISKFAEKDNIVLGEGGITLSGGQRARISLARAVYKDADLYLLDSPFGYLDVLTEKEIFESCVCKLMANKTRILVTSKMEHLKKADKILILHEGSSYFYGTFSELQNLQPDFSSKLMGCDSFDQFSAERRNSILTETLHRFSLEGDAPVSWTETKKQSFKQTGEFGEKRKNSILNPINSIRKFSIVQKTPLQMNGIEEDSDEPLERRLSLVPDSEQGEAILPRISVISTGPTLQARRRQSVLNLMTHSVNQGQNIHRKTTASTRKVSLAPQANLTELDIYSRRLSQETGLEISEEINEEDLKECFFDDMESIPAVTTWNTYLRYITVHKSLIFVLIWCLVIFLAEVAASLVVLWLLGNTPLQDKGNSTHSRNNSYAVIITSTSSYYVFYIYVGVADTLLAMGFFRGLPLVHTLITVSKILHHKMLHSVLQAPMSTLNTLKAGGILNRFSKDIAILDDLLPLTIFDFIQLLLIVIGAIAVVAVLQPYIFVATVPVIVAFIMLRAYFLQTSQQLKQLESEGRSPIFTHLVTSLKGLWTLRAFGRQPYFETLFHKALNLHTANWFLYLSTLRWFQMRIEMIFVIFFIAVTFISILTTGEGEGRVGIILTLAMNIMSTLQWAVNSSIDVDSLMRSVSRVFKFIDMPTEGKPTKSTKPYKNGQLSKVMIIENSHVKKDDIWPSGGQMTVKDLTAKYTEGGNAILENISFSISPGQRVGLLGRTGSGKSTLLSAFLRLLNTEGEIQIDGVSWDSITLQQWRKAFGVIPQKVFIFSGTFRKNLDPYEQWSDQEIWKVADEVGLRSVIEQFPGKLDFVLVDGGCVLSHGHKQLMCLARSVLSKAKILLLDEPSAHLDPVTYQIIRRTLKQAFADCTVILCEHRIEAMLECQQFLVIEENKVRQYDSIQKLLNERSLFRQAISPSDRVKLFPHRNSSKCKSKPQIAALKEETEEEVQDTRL
PROTOCOL_NOTES: Membrane potential optical assay (FRET voltage-sensor dyes), identification of correction compounds
CONDITION_SET: modulation of CFTR activity; NIH3T3 cells stably expressing F508del; procedures described above
The entries below come with measured EC50 values attached.
READOUT_TYPE: EC50

- CCN(CC)c1nc(-c2ccc(OC(C)C)nc2)ccc1C(=O)NS(=O)(=O)c1cccc(N)n1: 3 to 10 µM
- CC[C@@H](C)Oc1nc(-c2cc(F)cc(OCC(C)C)c2)ccc1C(=O)NS(=O)(=O)c1cccc(N)n1: < 3 µM
- CCCOc1nc(-c2cc(F)cc(OCC(C)C)c2)ccc1C(=O)NS(=O)(=O)c1cccc(N)n1: < 3 µM
- CC(C)COc1cc(F)cc(-c2ccc(C(=O)NS(=O)(=O)c3cccc(N)n3)c(OCC(C)(F)F)n2)c1: < 3 µM
- CC(C)COc1cc(F)cc(-c2ccc(C(=O)NS(=O)(=O)c3cccc(N)n3)c(C(C)C(C)C)n2)c1 (stereo not shown): < 3 µM
- CCOCCOc1nc(-c2cc(F)cc(OCC(C)C)c2)ccc1C(=O)NS(=O)(=O)c1cccc(N)n1: < 3 µM
- CCC(C)(C)CCOc1nc(-c2cc(F)cc(OCC(C)C)c2)ccc1C(=O)NS(=O)(=O)c1cccc(N)n1: < 3 µM
